For each record, write down the corresponding %E (% entrapment) 2nd IM.
Experiment: Percentage of encapsulated RNA and RNA concentration of replicon liposomes (Quant-iT RiboGreen)
Format: physicochemical
Settings: RSV-F replicon RNA LNP prepared for 2nd immunization
Write the value in % as a bare number.

Prompt line: Returns the measured %E (% entrapment) 2nd IM for the input compound. Input: CCCCC/C=C\C/C=C\CCCCCCCC(=O)OCC(COC(=O)CCC(OCCCCCCCC)OCCCCCCCC)COC(=O)OCC1CCCN(CC)C1 (stereo not drawn) [Example 15]
Response line: 96.64

Prompt line: Returns the measured %E (% entrapment) 2nd IM for the input compound. Input: CCCCC/C=C\C/C=C\CCCCCCCC(=O)OCC(COC(=O)CCC(OCCCCCCCC)OCCCCCCCC)COC(=O)C1(C)CCN(C)CC1 (stereo not drawn) [Example 40]
Response line: 78.05

Prompt line: Returns the measured %E (% entrapment) 2nd IM for the input compound. Input: CCCCC/C=C\C/C=C\CCCCCCCC(=O)OCC(COC(=O)CCC(OCCCCCCCC)OCCCCCCCC)COC(=O)C1CCN(CC2CC2)CC1 (stereo not drawn) [Example 34]
Response line: 79.19

---

Test: Percentage of encapsulated RNA and RNA concentration of replicon liposomes (Quant-iT RiboGreen)
Format: physicochemical
Details: RSV-F replicon RNA LNP prepared for 1st immunization
endpointName: %E (% entrapment) 1st IM (%)
Write the value in % as a bare number.

Prompt line: Returns the measured %E (% entrapment) 1st IM for the input compound. Input: CCCCC/C=C\C/C=C\CCCCCCCC(=O)OCC(COC(=O)CCC(OCCCCCCCC)OCCCCCCCC)COC(=O)C1CCN(CC2CC2)CC1 (stereo not shown)
Response line: 75.5

Prompt line: Returns the measured %E (% entrapment) 1st IM for the input compound. Input: CCCCC/C=C\C/C=C\CCCCCCCC(=O)OCC(COC(=O)CCC(OCCCCCCCC)OCCCCCCCC)COC(=O)OCC1CCCN(CC)C1 (stereo not shown)
Response line: 94.26

Prompt line: Returns the measured %E (% entrapment) 1st IM for the input compound. Input: CCCCC/C=C\C/C=C\CCCCCCCC(=O)OCC(COC(=O)CCC(OCCCCCCCC)OCCCCCCCC)COC(=O)C1CCN(C)C1 (stereo not shown)
Response line: 93.46

Prompt line: Returns the measured %E (% entrapment) 1st IM for the input compound. Input: CCCCC/C=C\C/C=C\CCCCCCCC(=O)OCC(COC(=O)CCC(OCCCCCCCC)OCCCCCCCC)COC(=O)CCN(C)C (stereo not shown)
Response line: 92.6

Prompt line: Returns the measured %E (% entrapment) 1st IM for the input compound. Input: CCCCC/C=C\C/C=C\CCCCCCCC(=O)OCC(COC(=O)CCCCCCC/C=C\C/C=C\CCCCC)COC(=O)C1(C)CCN(C)C1 (stereo not shown)
Response line: 96.21

Prompt line: Returns the measured %E (% entrapment) 1st IM for the input compound. Input: CCCCC/C=C\C/C=C\CCCCCCCC(=O)OCC(COC(=O)CCC(OCCCCCCCC)OCCCCCCCC)COC(=O)OC1CCN(C)CC1 (stereo not shown)
Response line: 86.169

Prompt line: Returns the measured %E (% entrapment) 1st IM for the input compound. Input: CCCCC/C=C\C/C=C\CCCCCCCC(=O)OCC(COC(=O)CCC(OCCCCCCCC)OCCCCCCCC)COC(=O)C1(C)CCN(C)CC1 (stereo not shown)
Response line: 71.1

---

Assay: Particle size of the lipid nanoparticle (Z-average, dynamic light scattering, Malvern Zetasizer)
Type: physicochemical
Settings: RSV-F replicon RNA LNP, DLS, 1st immunization
For each record, write down the corresponding Size 1st IM.
Write the value in nm as a bare number.

Prompt line: Returns the measured Size 1st IM for the input compound. Input: CCCCC/C=C\C/C=C\CCCCCCCC(=O)OCC(COC(=O)CCC(OCCCCCCCC)OCCCCCCCC)COC(=O)C1CCN(CC2CC2)CC1 (stereo not shown) [Example 34]
Response line: 136.2

Prompt line: Returns the measured Size 1st IM for the input compound. Input: CCCCC/C=C\C/C=C\CCCCCCCC(=O)OCC(COC(=O)CCC(OCCCCCCCC)OCCCCCCCC)COC(=O)CCN(C)C (stereo not shown) [Example 32]
Response line: 136.2

Prompt line: Returns the measured Size 1st IM for the input compound. Input: CCCCC/C=C\C/C=C\CCCCCCCC(=O)OCC(COC(=O)CCC(OCCCCCCCC)OCCCCCCCC)COC(=O)OC1CCN(C)CC1 (stereo not shown) [Example 48]
Response line: 137.9

Prompt line: Returns the measured Size 1st IM for the input compound. Input: CCCCC/C=C\C/C=C\CCCCCCCC(=O)OCC(COC(=O)CCC(OCCCCCCCC)OCCCCCCCC)COC(=O)C1(C)CCN(C)CC1 (stereo not shown) [Example 40]
Response line: 141

Prompt line: Returns the measured Size 1st IM for the input compound. Input: CCCCC/C=C\C/C=C\CCCCCCCC(=O)OCC(COC(=O)CCC(OCCCCCCCC)OCCCCCCCC)COC(=O)OCC1CCCN(CC)C1 (stereo not shown) [Example 15]
Response line: 144.7

Prompt line: Returns the measured Size 1st IM for the input compound. Input: CCCCC/C=C\C/C=C\CCCCCCCC(=O)OCC(COC(=O)CCC(OCCCCCCCC)OCCCCCCCC)COC(=O)C1CCN(C)C1 (stereo not shown) [Example 35]
Response line: 135.2

Prompt line: Returns the measured Size 1st IM for the input compound. Input: CCCCC/C=C\C/C=C\CCCCCCCC(=O)OCC(COC(=O)CCCCCCC/C=C\C/C=C\CCCCC)COC(=O)C1(C)CCN(C)C1 (stereo not shown) [Example 1]
Response line: 139.1

---

Assay: Measurement of mRNA encapsulation in lipid nanoparticles (Quant-iT Ribogreen)
Format: physicochemical
Details: Leptin mRNA in LNP
endpointName: % encapsulation mRNA Leptin (%)
Write the value in % as a bare number.

Prompt line: Returns the measured % encapsulation mRNA Leptin for the input compound. Input: CCCCCCCCCCCCCCCC(=O)OCC(COC(=O)CCC(OCCCCCCCC)OCCCCCCCC)COC(=O)C1CCN(C)C1 (stereo not shown)
Response line: 62.8

Prompt line: Returns the measured % encapsulation mRNA Leptin for the input compound. Input: CCCCC/C=C\C/C=C\CCCCCCCC(=O)OCC(COC(=O)CCC(OCCCCCCCC)OCCCCCCCC)COC(=O)OCC1CCCN(CC)C1 (stereo not shown)
Response line: 97.3

Prompt line: Returns the measured % encapsulation mRNA Leptin for the input compound. Input: CCCCCCCCCCCCCC(=O)OCC(COC(=O)CCCCC(COC(=O)CCCCCCC)COC(=O)CCCCCCC)COC(=O)C1CCN(C)C1 (stereo not shown)
Response line: 87.9

Prompt line: Returns the measured % encapsulation mRNA Leptin for the input compound. Input: CCCCC/C=C\C/C=C\CCCCCCCC(=O)OCC(COC(=O)CCC(OCCCCCCCC)OCCCCCCCC)COC(=O)C1CCN(C(C)C)CC1 (stereo not shown)
Response line: 97.4

Prompt line: Returns the measured % encapsulation mRNA Leptin for the input compound. Input: CCCCC/C=C\C/C=C\CCCCCCCC(=O)OCC(COC(=O)CCC(OCCCCCCCC)OCCCCCCCC)COC(=O)CCN(C)C (stereo not shown)
Response line: 97.1

Prompt line: Returns the measured % encapsulation mRNA Leptin for the input compound. Input: CCCCC/C=C\C/C=C\CCCCCCCC(=O)OCC(COC(=O)CCC(OCCCCCCCC)OCCCCCCCC)COC(=O)OCCCN1CCCC1 (stereo not shown)
Response line: 84.4

Prompt line: Returns the measured % encapsulation mRNA Leptin for the input compound. Input: CCCCC/C=C\C/C=C\CCCCCCCC(=O)OCC(COC(=O)CCCCCCCCC(=O)OCCCCCCCC)COC(=O)C1(C)CCN(C)C1 (stereo not shown)
Response line: 83.3

Prompt line: Returns the measured % encapsulation mRNA Leptin for the input compound. Input: CCCCCCCCOC(CCC(=O)OCC(COC(=O)CCC(OCCCCCCCC)OCCCCCCCC)COC(=O)CCN(C)C)OCCCCCCCC
Response line: 76.6

Prompt line: Returns the measured % encapsulation mRNA Leptin for the input compound. Input: COC(=O)CCCCCCC(=O)OCC(COC(=O)CCCCCCC(=O)OC)COC(=O)C1CCN(C)C1 (stereo not shown)
Response line: 9.3

Prompt line: Returns the measured % encapsulation mRNA Leptin for the input compound. Input: CCCCC/C=C\C/C=C\CCCCCCCC(=O)OCC(COC(=O)CCC(OCCCCCCCC)OCCCCCCCC)COC(=O)OC1CC(C)(C)N(C)C(C)(C)C1 (stereo not shown)
Response line: 32.2

Prompt line: Returns the measured % encapsulation mRNA Leptin for the input compound. Input: CCCCCCCCOC(CCCCC(=O)OCC(COC(=O)CCCCC(OCCCCCCCC)OCCCCCCCC)COC(=O)C1CCN(C)C1)OCCCCCCCC (stereo not shown)
Response line: 89.1

Prompt line: Returns the measured % encapsulation mRNA Leptin for the input compound. Input: CCCCCCCCOC(CCC(=O)OCC(COC(=O)CCC(OCCCCCCCC)OCCCCCCCC)COC(=O)C1CCN(C)C1)OCCCCCCCC (stereo not shown)
Response line: 95.2

Prompt line: Returns the measured % encapsulation mRNA Leptin for the input compound. Input: CCCCC/C=C\C/C=C\CCCCCCCC(=O)OCC(COC(=O)CCC(OCCCCCCCC)OCCCCCCCC)COC(=O)NCCCN(C)C (stereo not shown)
Response line: 93.5
